This listing pairs substances with measured Antibody titer with respect to aggregated human αSyn, relative to control.
Test system: aggregated human αSyn
protocol_text: Antibody-inducing ability in mice: ELISA antibody titer of immune serum with respect to aggregated human αSyn
Type: in vivo, mouse
recorded_conditions: Example 10, modified linker; mice; titer of AJ-p54 or AJ-p150 as control being 1 (logarithm)

{"substance": "ELKLIFLHRLKRLRKRLKRKEAAAKEAYEMPSEE [AJ-EAAAK-p150]", "recorded_measurement": 1.16}
{"substance": "ELKLIFLHRLKRLRKRLKRKDDAKKKKDQLGKNE [AJ-DDAKK-p54]", "recorded_measurement": 0.98}
{"substance": "ELKLIFLHRLKRLRKRLKRKGGGGSEAYEMPSEE [AJ-GGGGS-p150]", "recorded_measurement": 1.25}
{"substance": "ELKLIFLHRLKRLRKRLKRKPPDPDPKKDQLGKNE [AJ-PPDPDP-p54]", "recorded_measurement": 0.88}

Consider the record given below.
Request: Any idea what its Antibody titer with respect to aggregated human αSyn, relative to control is? The substance is ELKLIFLHRLKRLRKRLKRKϵKKKEAYEMPSEE [AJ-εKKK-p150]
Response: 0.90
